Assay: Lipid nanoparticle size and polydispersity by dynamic light scattering
Assay type: physicochemical
Conditions: LNP of lipid/DSPC/cholesterol/PEG-lipid 50:10:38.5:1.5 encapsulating hEPO mRNA
Experimental readout: polydispersity

Field: example entries. Status: answers known.
• CCCCCCCCC(CCCCCCCC)COC(=O)CCCCCN(CCO)CCN(CCCCCC(=O)OCC(CCCCCCCC)CCCCCCCC)C1CC(OC)C1 (stereo not shown) [Compound 67] = 0.023
• CCCCCCCCC(CCCCCCCC)COC(=O)CCCCCN(CCO)CCN(CCCCCC(=O)OCC(CCCCCCCC)CCCCCCCC)C1CCC1 [Compound 10] = 0.168

A = CCCCCCCCC(CCCCCC)COC(=O)CCCCCN(CCO)CCN(CCCCCC(=O)OCC(CCCCCC)CCCCCCCC)C1CCCC1 (stereo not shown) [Compound 8]
B = CCCCCCCCC(CCCCCC)CNC(=O)CCCCCN(CCOCCO)CCN(CCCCC(COC(=O)CCCCCCC)COC(=O)CCCCCCC)C1CCCC1 (stereo not shown) [Compound 205]
For the pair A and B , which entry has the numerically smaller recorded polydispersity? Your choice should be expressed through its label. B
(B: 0.023, A: 0.136)

====

Assay: Lipid nanoparticle size and polydispersity by dynamic light scattering
Format: physicochemical
Conditions: LNP of lipid/DSPC/cholesterol/PEG-lipid 50:10:38.5:1.5 encapsulating hEPO mRNA
Experimental: Briefly, a cationic lipid provided herein, DSPC, cholesterol, and PEG-lipid were solubilized in ethanol at a molar ratio of 50:10:38.5:1.5, and mRNA were diluted in 10 to 50 mM citrate buffer, pH=4. […] Lipid nanoparticle size were determined by dynamic light scattering using a Malvern Zetasizer Nano ZS (Malvern UK) using a […] backscatter detection mode. […]
Experimental readout: polydispersity

Field: example entries. Status: answers known.
• CCCCCCCCC(CCCCCC)COC(=O)CCCCCN(CC)CCN(CCO)CCCCC(COC(=O)CCCCCCC)COC(=O)CCCCCCC (stereo not drawn) = 0.112
• CCCCCCCC(=O)OCC(CCCCN(CCO)CCCCN(CCCCC(COC(=O)CCCCCCC)COC(=O)CCCCCCC)C1CCCCC1)COC(=O)CCCCCCC = 0.111
• CCCCCCCC(=O)OCC(CCCCN(CC=C(C)C)CCN(CCO)CCCCC(COC(=O)CCCCCCC)COC(=O)CCCCCCC)COC(=O)CCCCCCC = 0.068
• CCCCCCCCC(CCCCCCCC)CNC(=O)CCCCCN(CCN(CCCO)CCCCCC(=O)OCC(CCCCCCCC)CCCCCCCC)C1CCC1 = 0.036

I = CCCCCCCCOC(=O)C(CCCCN(CCN(CCO)CCCCCC(=O)OCC(CCCCCC)CCCCCCCC)C1CCC1)C(=O)OCCCCCCCC (stereo not drawn)
II = CCCCCCCCC(CCCCCC)COC(=O)CCCCCN(CCCCN(CCO)CCCCC(COC(=O)CCCCCCC)COC(=O)CCCCCCC)C1CCCCCC1 (stereo not drawn)
For the pair I and II , which entry has the numerically smaller recorded polydispersity? Your choice should be expressed through its label. I
(I: 0.043, II: 0.228)

====

Assay: Apparent pKa of LNP formulations, TNS fluorescence assay
Assay type: physicochemical
Settings: LNP cationic lipid/DSPC/cholesterol/DMG-PEG 50/10/38.5/1.5 mol %
Experimental readout: Apparent Pka

* CCCCCCCCC(CCCCCC)COC(=O)CCCCCN(CCO)CCN(CCCCCC(=O)OCC(CCCCCC)CCCCCCCC)C1CCCC1 (stereo not shown) | 6.401
* CCCCCCCCC(CCCCCC)CNC(=O)CCCCCN(CCOCCO)CCN(CCCCC(COC(=O)CCCCCCC)COC(=O)CCCCCCC)C1CCCC1 (stereo not shown) | 6.917
* CCCCCCCCC(CCCCCCCC)COC(=O)CCCCCN(CCO)CCN(CCCCCOC(=O)CCCCCC(CCCCCC)CCCCCC)C1CCC1 | 6.233
* CCCCCCCCCCCOC(=O)CCCCCN(CCN(CCCCCC(=O)OCC(CCCCCCCC)CCCCCCCC)CCNc1c(NC)c(=O)c1=O)C1CCC1 | 6.599
* CCCCCCCCC(CCCCCCCC)COC(=O)CCCCCN(CCO)CCCCN(CCCCCC(=O)OCC(CCCCCCCC)CCCCCCCC)C1CCC1 | 6.814
* CCCCCCCCCCCC(=O)OCCCCCN(CCN(CCO)CCCCCOC(=O)CC(CCCCCCCC)CCCCCCCC)C1CCCCCC1 | 6.448
* CCCCCCC(=O)OCC(CCCCN(CCO)CCN(CCCCC(COC(=O)CCCCCC)COC(=O)CCCCCC)C1CCC1)COC(=O)CCCCCC | 6.183
* CCCCCCCCC(CCCCCC)COC(=O)CCCCCN(CCO)CCN(CCCCC(COC(=O)CCCCCCC)COC(=O)CCCCCCC)C1CC1 (stereo not shown) | 6.061
* CCCCCCCCC(CCCCCCCC)CNC(=O)CCCCCN(CCN(CCCCCCCCCO)CCCCCC(=O)OCC(CCCCCCCC)CCCCCCCC)C1CCC1 | 6.195
* CCCCCCCCC(CCCCCCCC)COC(=O)CCCCCN(CCO)CCN(CCCCCC(=O)OCC(CCCCCCCC)CCCCCCCC)Cc1ccc(O)cc1 | 6.702
* CCCCCCCCC(CCCCCC)COC(=O)CCCCCN(CCCCN(CCO)CCCCC(COC(=O)CCCCCCC)COC(=O)CCCCCCC)C1CCCCCC1 (stereo not shown) | 6.666
* CCCCCCCCC(CCCCCC)COC(=O)CCCCCN(CCO)CCN(CCCCC(COC(=O)CCCCCCC)COC(=O)CCCCCCC)C1CCCCCCC1 (stereo not shown) | 6.182
* CCCCC/C=C\CCCC(CCC/C=C\CCCCC)COC(=O)CCCCCN(CCO)CCN(CCCCCC(=O)OCC(CCC/C=C\CCCCC)CCC/C=C\CCCCC)C1CCCCC1 | 6.018

====

Assay: Lipid nanoparticle size and polydispersity by dynamic light scattering
Format: physicochemical
Conditions: LNP of lipid/DSPC/cholesterol/PEG-lipid 50:10:38.5:1.5 encapsulating hEPO mRNA
Experimental readout: polydispersity

Field: example entries. Status: answers known.
* CCCCCCCCCCCOC(=O)CCCCCN(CCN(CCO)CCCCC(COC(=O)CCCCCCC)COC(=O)CCCCCCC)C1CCCCC1 | 0.07
* CCCCCCCCC(CCCCCCCC)COC(=O)CCOCCN(CCO)CCN(CCOCCC(=O)OCC(CCCCCCCC)CCCCCCCC)C1CCCCC1 | 0.012
* CCCCCCCCC(CCCCCC)CNC(=O)CCCCCN(CCCCN(CCO)CCCCC(COC(=O)CCCCCCC)COC(=O)CCCCCCC)C1CCCCCCC1 (stereo not drawn) | 0.162
* CCCCCCC(=O)OCC(CCCCN(CCO)CCN(CCCCC(COC(=O)CCCCCC)COC(=O)CCCCCC)C1CCC1)COC(=O)CCCCCC | 0.125

I = CCCCCCCCC(CCCCCC)CNC(=O)CCCCCN(CCOCCO)CCN(CCCCC(COC(=O)CCCCCCC)COC(=O)CCCCCCC)C1CCCCCC1 (stereo not drawn)
II = CCCCCCCCC(CCCCCCCC)COC(=O)CCCCCN(CC=C(C)C)CCN(CCO)CCCCCC(=O)OCC(CCCCCCCC)CCCCCCCC
For the pair I and II , which entry has the numerically smaller recorded polydispersity? Your choice should be expressed through its label. II
(II: 0.046, I: 0.071)

a = CCCCCCCCCCCOC(=O)CCCCCN(CCN(CCO)CCCCCOC(=O)OCC(CCCCCCCC)CCCCCCCC)C1CCCCC1
b = CCCCCCCCC(CCCCCC)CNC(=O)CCCCCN(CCO)CCN(CCCCC(COC(=O)CCCCCCC)COC(=O)CCCCCCC)C1CCC1 (stereo not drawn)
For the pair a and b , which entry has the numerically smaller recorded polydispersity? Your choice should be expressed through its label. b
(b: 0.040, a: 0.093)

1 = CCCCCCCCC(CCCCCCCC)COC(=O)CCCCCN(CCO)CCN(CCCCCC(=O)OCC(CCCCCCCC)CCCCCCCC)C1CCC(C)(C)CC1
2 = CCCCCCCCC(CCCCCCCC)CNC(=O)CCCCCN1CCC(N(CCO)CCCCC(COC(=O)CCCCCCC)COC(=O)CCCCCCC)CC1
3 = CCCCCCCCC(CCCCCC)COC(=O)CCCCCN(CCCCN(CCO)CCCCC(COC(=O)CCCCCCC)COC(=O)CCCCCCC)C1CCCCCCC1 (stereo not drawn)
4 = CCCCCCCCC(CCCCCCCC)CNC(=O)CCCCCN(CCO)CCN(CCCCCC(=O)OCC(CCCCCCCC)CCCCCCCC)C1CCC1
Given 4 compounds, produce a descending ranking by polydispersity. Please list each label once, in the requested order. 3, 1, 2, 4

A = CCCCCCCCC(CCCCCC)CNC(=O)CCCCCN(CCCCN(CCO)CCCCC(COC(=O)CCCCCCC)COC(=O)CCCCCCC)C1CCCCCC1 (stereo not drawn)
B = CCCCCCCC(=O)OCC(CCCCN(CCO)CCCCN(CCCCC(COC(=O)CCCCCCC)COC(=O)CCCCCCC)C1CCC1)COC(=O)CCCCCCC
For the pair A and B , which entry has the numerically smaller recorded polydispersity? Your choice should be expressed through its label. A
(A: 0.069, B: 0.103)
